- System: A549
- protocol.description: Cytotoxicity against human A549 cells after 96 hrs by SRB assay
- Assay type: functional, cell-based
- test.conditions: A549, 96 h
result.type: EC50 (µM)

- compound.smiles: "CC(=O)O[C@H]1CC[C@]2(C)[C@H]3CC[C@@H]4[C@H]5[C@H](C(C)=O)CC[C@]5(C(=O)NCCN(C)C)CC[C@@]4(C)[C@]3(C)CC[C@H]2C1(C)C"
  rel: "="
  result: 2.9
- compound.smiles: "CC(=O)[C@@H]1CC[C@]2(N)CC[C@]3(C)[C@H](CC[C@@H]4[C@@]5(C)CC[C@H](O)C(C)(C)[C@@H]5CC[C@]43C)[C@@H]12"
  rel: ">"
  result: 30
- compound.smiles: "C[C@@H](N)[C@@H]1CC[C@]2(C(=O)OCc3ccccc3)CC[C@]3(C)[C@H](CC[C@@H]4[C@@]5(C)CC[C@H](O)C(C)(C)[C@@H]5CC[C@]43C)[C@@H]12"
  rel: "="
  result: 10.1
- compound.smiles: "COC(=O)[C@]12CC[C@@H](/C(C)=N/OC(C)=O)[C@@H]1[C@H]1CC[C@@H]3[C@@]4(C)CC[C@H](OC(C)=O)C(C)(C)[C@@H]4CC[C@@]3(C)[C@]1(C)CC2"
  rel: "="
  result: 13.5
- compound.smiles: "CN[C@@H]1C[C@H]2O[C@@](C)([C@@H]1OC)n1c3ccccc3c3c4c(c5c6ccccc6n2c5c31)C(=O)NC4"
  rel: "="
  result: 0.04
- compound.smiles: "COC(=O)[C@]12CC[C@@H]([C@@H](C)N)[C@@H]1[C@H]1CC[C@@H]3[C@@]4(C)CC[C@H](OC(C)=O)C(C)(C)[C@@H]4CC[C@@]3(C)[C@]1(C)CC2"
  rel: "="
  result: 5.3
- compound.smiles: "CCC(=O)O/N=C(\\C)[C@@H]1CC[C@]2(C(=O)OC)CC[C@]3(C)[C@H](CC[C@@H]4[C@@]5(C)CC[C@H](OC(C)=O)C(C)(C)[C@@H]5CC[C@]43C)[C@@H]12"
  rel: "="
  result: 13.2
- compound.smiles: "CNC(=O)[C@@H]1CC[C@]2(C(=O)OC)CC[C@]3(C)[C@H](CC[C@@H]4[C@@]5(C)CC[C@H](O)C(C)(C)[C@@H]5CC[C@]43C)[C@@H]12"
  rel: ">"
  result: 30
- compound.smiles: "CC(=O)O[C@H]1CC[C@]2(C)[C@H]3CC[C@@H]4[C@H]5[C@H](/C(C)=N/O)CC[C@]5(C(=O)OCc5ccccc5)CC[C@@]4(C)[C@]3(C)CC[C@H]2C1(C)C"
  rel: "="
  result: 7.9
- compound.smiles: "C[C@@H](N)[C@@H]1CC[C@]2(CO)CC[C@]3(C)[C@H](CC[C@@H]4[C@@]5(C)CC[C@H](O)C(C)(C)[C@@H]5CC[C@]43C)[C@@H]12"
  rel: ">"
  result: 30

* * *

- Tested on: A2780
- protocol.description: Cytotoxicity against human A2780 cells after 96 hrs by SRB assay
- Assay type: functional, cell-based
- test.conditions: A2780, 96 h
pEC50: −log10 of the molar value.
# maps each entry to its pEC50

- compound.smiles: "CC(=O)O[C@H]1CC[C@]2(C)[C@H]3CC[C@@H]4[C@H]5[C@H](C(C)=O)CC[C@]5(C(=O)OCc5ccccc5)CC[C@@]4(C)[C@]3(C)CC[C@H]2C1(C)C"
  pEC50: "< 4.52"
- compound.smiles: "COC(=O)[C@]12CC[C@@H](NC(C)=O)[C@@H]1[C@H]1CC[C@@H]3[C@@]4(C)CC[C@H](O)C(C)(C)[C@@H]4CC[C@@]3(C)[C@]1(C)CC2"
  pEC50: "< 4.52"
- compound.smiles: "COC(=O)[C@]12CC[C@@H](C(C)=O)[C@@H]1[C@H]1CC[C@@H]3[C@@]4(C)CC[C@H](OC(C)=O)C(C)(C)[C@@H]4CC[C@@]3(C)[C@]1(C)CC2"
  pEC50: "< 4.52"

* * *

- System: MCF7
- protocol.description: Cytotoxicity against human MCF7 cells after 96 hrs by SRB assay
- Assay type: functional, cell-based
- test.conditions: MCF7, 96 h
# maps each entry to its EC50

- compound.smiles: "CC(=O)[C@@H]1CC[C@]2(N)CC[C@]3(C)[C@H](CC[C@@H]4[C@@]5(C)CC[C@H](O)C(C)(C)[C@@H]5CC[C@]43C)[C@@H]12"
  rel: ">"
  EC50, µM: 30
- compound.smiles: "C[C@@H](N)[C@@H]1CC[C@]2(C(=O)OCc3ccccc3)CC[C@]3(C)[C@H](CC[C@@H]4[C@@]5(C)CC[C@H](O)C(C)(C)[C@@H]5CC[C@]43C)[C@@H]12"
  rel: "="
  EC50, µM: 5.6
- compound.smiles: "COC(=O)[C@]12CC[C@@H](/C(C)=N/O)[C@@H]1[C@H]1CC[C@@H]3[C@@]4(C)CC[C@H](OC(C)=O)C(C)(C)[C@@H]4CC[C@@]3(C)[C@]1(C)CC2"
  rel: "="
  EC50, µM: 12.4
- compound.smiles: "CC(=O)[C@@H]1CC[C@]2(C(=O)NCCN3CCCC3)CC[C@]3(C)[C@H](CC[C@@H]4[C@@]5(C)CC[C@H](O)C(C)(C)[C@@H]5CC[C@]43C)[C@@H]12"
  rel: "="
  EC50, µM: 2.1
- compound.smiles: "CC(=O)O[C@H]1CC[C@]2(C)[C@H]3CC[C@@H]4[C@H]5[C@H](/C(C)=N\\O)CC[C@]5(C(=O)OCc5ccccc5)CC[C@@]4(C)[C@]3(C)CC[C@H]2C1(C)C"
  rel: "="
  EC50, µM: 7.3
- compound.smiles: "CC(=O)[C@@H]1CC[C@]2(C(=O)OCc3ccccc3)CC[C@]3(C)[C@H](CC[C@@H]4[C@@]5(C)CC[C@H](N)C(C)(C)[C@@H]5CC[C@]43C)[C@@H]12"
  rel: "="
  EC50, µM: 1.8
- compound.smiles: "COC(=O)[C@]12CC[C@@H](C(C)=O)[C@@H]1[C@H]1CC[C@@H]3[C@@]4(C)CC[C@H](O)C(C)(C)[C@@H]4CC[C@@]3(C)[C@]1(C)CC2"
  rel: ">"
  EC50, µM: 30
- compound.smiles: "CNC(=O)[C@@H]1CC[C@]2(C(=O)OC)CC[C@]3(C)[C@H](CC[C@@H]4[C@@]5(C)CC[C@H](O)C(C)(C)[C@@H]5CC[C@]43C)[C@@H]12"
  rel: ">"
  EC50, µM: 30
- compound.smiles: "CC(=O)OC[C@]12CC[C@@H]([C@@H](C)N)[C@@H]1[C@H]1CC[C@@H]3[C@@]4(C)CC[C@H](OC(C)=O)C(C)(C)[C@@H]4CC[C@@]3(C)[C@]1(C)CC2"
  rel: "="
  EC50, µM: 2.1
- compound.smiles: "CNC(=O)[C@@H]1CC[C@]2(C(=O)OC)CC[C@]3(C)[C@H](CC[C@@H]4[C@@]5(C)CC[C@H](OC(C)=O)C(C)(C)[C@@H]5CC[C@]43C)[C@@H]12"
  rel: "="
  EC50, µM: 13.9
- compound.smiles: "COC(=O)[C@]12CC[C@@H]([C@H](C)N)[C@@H]1[C@H]1CC[C@@H]3[C@@]4(C)CC[C@H](OC(C)=O)C(C)(C)[C@@H]4CC[C@@]3(C)[C@]1(C)CC2"
  rel: "="
  EC50, µM: 4.6
- compound.smiles: "CC(=O)O[C@H]1CC[C@]2(C)[C@H]3CC[C@@H]4[C@H]5[C@H](C(C)=O)CC[C@]5(C(=O)O)CC[C@@]4(C)[C@]3(C)CC[C@H]2C1(C)C"
  rel: ">"
  EC50, µM: 30

* * *

- Tested on: A2780
- protocol.description: Cytotoxicity against human A2780 cells after 96 hrs by SRB assay
- Assay type: functional, cell-based
- test.conditions: A2780, 96 h
pEC50: −log10 of the molar value.
Response key: t means pEC50 >= 5; f means pEC50 < 5.

- compound.smiles: "CNC(=O)[C@@H]1CC[C@]2(C(=O)OC)CC[C@]3(C)[C@H](CC[C@@H]4[C@@]5(C)CC[C@H](O)C(C)(C)[C@@H]5CC[C@]43C)[C@@H]12"
  tested.target: "A2780"
  classification: "f"
- compound.smiles: "CC(=O)O[C@H]1CC[C@]2(C)[C@H]3CC[C@@H]4[C@H]5[C@H]([C@@H](C)N)CC[C@]5(C(=O)O)CC[C@@]4(C)[C@]3(C)CC[C@H]2C1(C)C"
  tested.target: "A2780"
  classification: "f"
- compound.smiles: "COC(=O)[C@]12CC[C@@H](C(C)=O)[C@@H]1[C@H]1CC[C@@H]3[C@@]4(C)CC[C@H](O)C(C)(C)[C@@H]4CC[C@@]3(C)[C@]1(C)CC2"
  tested.target: "A2780"
  classification: "f"
- compound.smiles: "COC(=O)[C@]12CC[C@@H]([C@H](C)NC(C)=O)[C@@H]1[C@H]1CC[C@@H]3[C@@]4(C)CC[C@H](OC(C)=O)C(C)(C)[C@@H]4CC[C@@]3(C)[C@]1(C)CC2"
  tested.target: "A2780"
  classification: "f"
- compound.smiles: "CC(=O)O[C@H]1CC[C@]2(C)[C@H]3CC[C@@H]4[C@H]5[C@H](C(C)=O)CC[C@]5(N=C=O)CC[C@@]4(C)[C@]3(C)CC[C@H]2C1(C)C"
  tested.target: "A2780"
  classification: "f"
- compound.smiles: "CC(=O)O[C@H]1CC[C@]2(C)[C@H]3CC[C@@H]4[C@H]5[C@H](C(C)=O)CC[C@]5(C(=O)O)CC[C@@]4(C)[C@]3(C)CC[C@H]2C1(C)C"
  tested.target: "A2780"
  classification: "f"
- compound.smiles: "CC(=O)O[C@H]1CC[C@]2(C)[C@H]3CC[C@@H]4[C@H]5[C@H]([C@H](C)N)CC[C@]5(C(=O)OCc5ccccc5)CC[C@@]4(C)[C@]3(C)CC[C@H]2C1(C)C"
  tested.target: "A2780"
  classification: "t"
- compound.smiles: "CC(=O)[C@@H]1CC[C@]2(C(=O)O)CC[C@]3(C)[C@H](CC[C@@H]4[C@@]5(C)CC[C@H](O)C(C)(C)[C@@H]5CC[C@]43C)[C@@H]12"
  tested.target: "A2780"
  classification: "f"
- compound.smiles: "CC(=O)O[C@H]1CC[C@]2(C)[C@H]3CC[C@@H]4[C@H]5[C@H]([C@@H](C)N)CC[C@]5(C(=O)OCc5ccccc5)CC[C@@]4(C)[C@]3(C)CC[C@H]2C1(C)C"
  tested.target: "A2780"
  classification: "t"
